# target: T1, human neuropeptide Y2 receptor (human, UniProt P49146 1-381)
# T1 construct: whole, on cells; also called hNPY2 receptor; hNPY2-R
# T1 sequence (looked up): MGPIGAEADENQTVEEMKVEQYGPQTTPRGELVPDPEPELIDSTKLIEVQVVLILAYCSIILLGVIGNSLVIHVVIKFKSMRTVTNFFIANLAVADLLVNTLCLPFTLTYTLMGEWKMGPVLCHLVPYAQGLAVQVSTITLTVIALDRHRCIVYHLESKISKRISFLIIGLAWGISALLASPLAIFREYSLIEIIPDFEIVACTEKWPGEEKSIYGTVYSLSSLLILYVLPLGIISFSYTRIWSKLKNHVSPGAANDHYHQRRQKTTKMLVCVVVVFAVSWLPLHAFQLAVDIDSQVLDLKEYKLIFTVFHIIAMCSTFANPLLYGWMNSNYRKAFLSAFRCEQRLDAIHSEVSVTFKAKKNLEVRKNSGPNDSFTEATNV
# assay: RLB 6: apparent Ki of filtrate after incubation at pH 6.1-6.2
*1 amine or outer side, *2 acyl side, *3 side chain or, on linkers, in order; H or OH if unused. Side-chain parts run from the residue outwards. The star is where a group is joined. C18 diacid = O=C(O)CCCCCCCCCCCCCCCCC(=O)*; γGlu = O=C(O)[C@H](CCC(=O)[*:2])N[*:1]; Isovaleryl = CC(C)CC(=O)*; AEEA = NCCOCCOCC(=O)O
The label 1 is reserved for Ki strictly under 7 nM; 0 covers values equal to or above it.

Isovaleryl-APEK([AEEA-AEEA-γGlu-C18 diacid])PEADASPEEIQRYYVSLRHYYNWLTRQRY-NH2 [Compound 53] : 1
Isovaleryl-APAK([AEEA-AEEA-γGlu-C18 diacid])PEEDATPEELQRYYVSLRHYYNWLTRQRY-NH2 [Compound 106] : 0
Isovaleryl-APAK([AEEA-AEEA-γGlu-C18 diacid])PEEDASPEEIQRYYVSLRHYYNWLTRQRY-NH2 [Compound 23] : 1
Isovaleryl-APEK([AEEA-AEEA-γGlu-C18 diacid])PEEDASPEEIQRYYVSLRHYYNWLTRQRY-NH2 [Compound 84] : 1

Let's switch to this binder now.
Query :: Would you kindly verify if Ki of Isovaleryl-APAK([AEEA-AEEA-γGlu-C18 diacid])PEEDASPEELQRYYVSLRHYYNWLTRQRY-NH2 [Compound 203] is strictly less than 7 nM?
Result :: 1

// data source = patent US20210139548A1
